tested on: Wild type; assay: S. aureus survival, RN4220 and DeltatarO strains – OD600, teichoic acid synthesis inhibitors, primary screen (AID 463173); settings: S. aureus RN4220 wild type/DeltatarO growth, OD600, 18 h, active compounds read low, screened at 18.75 µg/mL (by protocol)
In all, about 52,000 compounds went through this assay and about 1,700 (3.3%) were called active. Only a selection was taken, and actives are over-represented in it overall.
Readout Type: survival (%)
One number for each entry, in %.

Solved entries:
>>> obs_value("CC1Cc2cc(S(=O)(=O)N(C)c3ccc(Br)cc3)ccc2N1C(=O)C1CC1 (stereo unspecified)")
106
>>> obs_value("COCCCNC(=O)c1ccc2nc(CCc3ccccc3)oc2c1")
88
>>> obs_value("CCc1ccc(CNC(=O)c2sc3ncccc3c2-n2c(C)ccc2C)cc1")
-3
>>> obs_value("CCOc1ccc(NC(=O)N(Cc2cn(CC)c3ccccc23)C2CCCCCC2)cc1")
0
>>> obs_value("NCC1OCCc2ccccc21 (stereo unspecified)")
114
>>> obs_value("COc1ccc(C(Nc2ccccn2)c2ccc3ccc(C)nc3c2O)cc1C (stereo unspecified)")
62
>>> obs_value("COC(=O)c1sccc1S(=O)(=O)N(CC(=O)Nc1cccc(C)c1C)c1ccc(C)c(C)c1")
69
>>> obs_value("CCOc1ccc(NC(=O)N(Cc2c[nH]c3ccccc23)C2CCCCC2)cc1")
79

# batch size: 6; output survival per entry
1. COc1ccc(S(=O)(=O)N(CC(=O)N2CCC(C)CC2)c2ccc(C)cc2)cc1
2. O=C(NCc1ccccc1Cl)c1ccc(Cn2c(SCc3ccccc3)nc3cccnc32)cc1
3. COc1ccc(NC(=O)Cn2cc(S(=O)(=O)N3CCN(c4ccccc4F)CC3)c3ccccc3c2=O)cc1Cl
4. Cc1ccc(C)c(S(=O)(=O)NCC(c2ccc(N(C)C)cc2)N2CCOCC2)c1 (stereo unspecified)
5. CCc1ccccc1NC(=O)c1cc(S(=O)(=O)N2CCCC2)cn1C
6. COCCCNC(=O)c1ccc(CSc2nc3cccnc3n2Cc2ccc(OC)cc2)cc1

Resp:
[89, 68, 100, 73, 84, 94]
